Recorded values, source the supplement of paper PMC9170038.

# Tested on: MS2 coat protein
# Assay Info: apparent KD of MS2 coat protein; higher = weaker reporter binding
# Experimental Conditions: Eterna round: R107; input ligand: theophylline 2 mM
Property Name: apparent KD of MS2 coat protein (nM)

AAUUCCUCACAUGAGGAUCACCCAUGUGAAGGAGCGCCGAAUAAGGCAGGUAGGUCGCACAUGGAAACCGCUGCGAAAGCAGCAA [MAT - Exclusion Arginine A - Mod of Eli - D25] ... 25
CGGUGUAGGGUUAAUAGGCUGAGUACAGAAGGAGCGCGAAUAAACGCAGGUAGGUCGCUGGCGAACAUGAGGAUCACCCAUGUAU [Same State Arginine A GF 30] ... 32
GUGUUAUGCUCGGCCGCCACUCUGACAUGAGGAUCACCCAUGUUGUACAUGAGGAUCACCCAUGUGAGGACCGGGAGAAACACGA [Exclusion Tryptophan B GF9] ... 209
